Give measured melting point for each item. Keep answers brief.
Give bare numbers, in °C.

Consider the worked cases shown below.
COc1ccc(CNc2nc(-c3ccc(C(=O)O)cc3)nc3scc(C)c23)cc1Cl | 245
CCCCCCCCc1ccc(CCC(NC(C)=O)(C(=O)OCC)C(=O)OCC)cc1 | 61
Cc1cc(C)nc(NC(=O)NS(=O)(=O)c2ccccc2-c2ccccc2)n1 | 78
CCCCCCC(C)(C)c1ccc([C@@H]2CC(=O)C[C@@H](O)C2)c(OCc2ccccc2)c1 (relative stereo) | 95

Now for another entry.
Per the record, CS(=O)(=O)C(=C1CN(C(c2ccc(Cl)cc2)c2ccc(Cl)cc2)C1)c1cc(F)cc(F)c1 has melting point of 200

====

Give melting point for every item shown.

Would you mind giving melting point for every compound in the list below?
1. CCC1(CO)CS(=O)(=O)c2ccccc2C(c2ccccc2)=N1 (stereo unspecified)
2. CCOC(=O)C(=CNc1cnc2ccccc2n1)c1ccccc1
3. OC(c1ccccc1)(c1cccs1)C1CCN(CCc2ccccc2)CC1 (stereo unspecified)
4. CCC(CC)(NCCCn1cnc(CCNC(=O)c2ccc(C#N)cc2)c1)c1ccccc1
5. O=c1c2ccccc2c(Cc2ccc(F)cc2)nn1N1CCNCC1
6. CCOC(=O)C(=O)Nc1ccc(S(N)(=O)=O)cc1[N+](=O)[O-]
7. C=C(C(=O)O)c1ccc(OC)c(OC)c1

1: 170 to 171 °C; 2: 193 to 194 °C; 3: 143 to 144 °C; 4: 107 to 109 °C; 5: 157 to 159 °C; 6: 193 to 195 °C; 7: 128 °C

====

Give melting point for every item shown.

Cc1cc(-n2ncnn2)cc2ccc(=O)[nH]c12 | 264 to 266 °C

// for each compound in input: emit melting point
1. CC(=O)c1ccc(CC(C)OS(=O)(=O)c2ccc(C)cc2)s1 (racemic)
2. Cc1nc(C)c(=O)n(CCO)c1C
3. CCOCCn1c(CN2CCN(Cc3ccccc3)CC2C)nc2cccnc21 (stereo not given)
4. Cc1oc(-c2ccccc2)nc1COc1ccc(Cn2cc(CO)cn2)cc1
5. O=C(c1cc(=O)c2cc(O)ccc2[nH]1)N1CCC(O)(Cc2ccccc2)CC1

101 to 103 °C
140 to 144 °C
91.2 °C
100 to 101 °C
178 °C

Value sought for every listed compound: melting point.
1. Cc1cc(Br)ccc1N=CN(C)SN(C)C=Nc1ccc(Br)cc1C
2. COc1cc(Cl)ccc1-c1nc2cc3c(cc2[nH]1)C(C)(C)CC(=O)N3
3. O=C(O)c1c2c(nc3ccc(F)cc13)-c1ccc(-c3ccccc3)cc1CC2
4. Oc1c(F)cc(Cn2c(S)nc3ccccc32)cc1F

1. 127 to 129 °C
2. 300 to 303 °C
3. 309 to 310 °C
4. 200 °C

====

Task for the reader: assign each of the following compounds its reported melting point.

Sample answers from the record:
CCC(=O)c1cnc(C(=O)CC)cn1 | 112 °C
CN(C)S(=O)(=O)c1ccc(Cl)c(-c2csc(=Nc3ccc(O)cc3)n2C)c1 | 221 to 224 °C
CC(Cc1cccc(C(F)(F)F)c1)N(CC(=O)O)Cc1ccccc1 (stereo not given) | 80 °C
CCOC(=O)/C=C/c1cc(OC)c(O)c2c(CC)cccc12 | 75 to 76 °C
COc1ccc(SC(C)(Cc2ccccc2)C(=O)NO)cc1 (stereo not given) | 88 °C
N#Cc1ccc(CCN2CCC(NC(=O)C34CC5CC(CC(C5)C3)C4)C2)cc1 (stereo not given) | 104 to 105 °C
CC(=O)Oc1cc2oc(=O)cc(CSc3ccccc3C(=O)O)c2cc1OC(C)=O | 216 to 218 °C
O=C1SC[C@H]2[C@@H]1N(Cc1ccccc1)C(=O)N2Cc1ccccc1 (relative stereo) | 118 to 119 °C
N#Cc1cnc2cc(F)ccc2c1Cl | 163 to 165 °C

Consider now this further compound.
Per the record, O=C1NCCc2c1c1cccc(F)c1n2COCc1ccccc1 has melting point of 130 to 132 °C

These entries and their values trace back to a melting point compilation (Tetko et al.; mined from patent text by program, amines drawn as free bases though some values may be those of a salt).
